# target-system: GST
# assay-protocol: SPOT array
# condition-notes: median of control spots 978
binders and their reported SPOT intensity
Form: value (number only, do not type unit).

Answered examples (6):
{"binder": "TIRRRAPLSLLESHT", "test-value": 1}
{"binder": "NVLRKILEIPLHSFS", "test-value": 0}
{"binder": "SNRRPVPRRPSQPLN", "test-value": 0}
{"binder": "NFLRLLIGLPSQNEL", "test-value": 0}
{"binder": "ALFRLSFFFPLDPAY", "test-value": 1}
{"binder": "NMLSRPRLAKLPSIR", "test-value": 0}

Okay, next one:
Prompt: Suppose we examine the binder RRTRLRPPTPLSQLL ; what SPOT intensity value has been reported?
Completion: 5
